System: C33A cervical carcinoma cells
Assay: cells
Assay type: cell-based
Settings: Homo sapiens, C-33-A; C33A; cellular ATP levels as described in Example 2; read-out: IC50 (μM) C33A, Effect on Cancer Cells Viability
quantity.name: IC50 (µM)

COC1=CC(c2[nH]c3ccccc3c2C(=O)NCCCO)=N/C1=C\c1[nH]c(C)cc1C	11.1
COC1=CC(c2cc3cc(OC)ccc3[nH]2)=N/C1=C\c1[nH]c(C)cc1C	1.44
CNCc1c(C2=N/C(=C\c3[nH]c(C)cc3C)C(OC)=C2CO)[nH]c2ccccc12	0.25

A: Cc1cc(C)c(/C=C2/N=C(c3cc4cc(F)ccc4[nH]3)C=C2OC(C)C)[nH]1
B: COC1=CC(c2cc3ccccc3n2C(=O)c2ccccc2)=N/C1=C/c1[nH]c(C)cc1C
C: COC1=CC(c2cc3cc(Br)ccc3[nH]2)=N/C1=C\c1[nH]c(C)cc1C
D: COC1=CC(c2[nH]c3ccccc3c2C(=O)c2ccc(-c3ccccn3)s2)=N/C1=C\c1[nH]c(C)cc1C
E: COC1=CC(c2[nH]c3ccccc3c2C(=O)c2ccoc2)=N/C1=C\c1[nH]c(C)cc1C
Ask: Order the records, beginning with the lowest IC50 and ending with the highest. Put the labels in the requested order and list them out.
Reply: B, A, C, D, E
